Test system: E. coli ATCC 23506
Conditions: ATCC 23506, 18 h
Ends that are not written are not given here.
endpoint: MIC, E. coli ATCC 23506 (µg/mL)
I only need the number, in µg/mL, no unit after it.

Please review the following examples before continuing.
- substance: "GIGKFLKKAKKFGKAFVKILKK-NH2 [pexiganan]"
  systemName: "E. coli ATCC 23506"
  measured: 2
- substance: "LGGIVSAVKKIVDFLG-NH2 [r-citropin 1.1]"
  systemName: "E. coli ATCC 23506"
  measured: 128
- substance: "GLFDVIKKVASVIGGL-NH2 [citropin 1.1]"
  systemName: "E. coli ATCC 23506"
  measured: 32

Req: MIC, E. coli ATCC 23506 lookup needed for ILRWPWWPWRRK-NH2 [omiganan] , thanks.
Resp: 32

Req: Now this one: KKLIKVFAKGFKKAKKLFKGIG-NH2 [r-pexiganan]
Resp: 2

Req: Now this one: FSEAIKKIIDFLG-NH2 [r-aurein 1.2]
Resp: 256

Req: Now this one: GLFDIIKKIAESF-NH2 [aurein 1.2]
Resp: 128

Req: Now this one: LIGSLVRGILPLF-NH2 [r-temporin A]
Resp: 256
